# Tested on: 786-0 renal
# Assay Protocol: NCI tumour cell line growth inhibition, 48 h
Measured Endpoint: TGI

Example cases with answers are listed next.
> print(dat)
                                chem.smiles  study.system  value.observed
1                CN1Cc2ccccc2/C=C\c2ccccc21   786-0 renal        > 100 µM
2  COc1ccc(-c2nc(-c3nc4ccc(C)cc4[nH]3)cc3c2[nH]c2ccccc23)cc1   786-0 renal        > 100 µM

## Input Requested read-out: TGI. Entry: "COc1ccc(C(=O)c2cc(C)c(OC)c(C)c2)c(OC)c1NC(C)=O"
## Output > 100 µM

====

# Tested on: NCI-H226 lung
# Assay Protocol: NCI tumour cell line growth inhibition, 48 h
Entries and their TGI values follow.

Example cases with answers are listed next.
> print(dat)
                                chem.smiles  measured.endpoint  value.observed
1             O=C(O)/C(Cc1ccnc2ccccc12)=N\O                TGI        > 100 µM
2               Cc1nc(-c2cc3ccccc3oc2=O)cs1                TGI        > 100 µM
3  CC(C)(C)OC(=O)c1ccc(NCC2=C(Br)C(=O)C=CC2=O)cc1                TGI       > 90.1 µM
4                      CCCCCCSSC(=S)N(CC)CC                TGI        > 100 µM
5        CCOC(=O)/C(=C/c1cccc(Cl)c1)N(CC)CC                TGI        > 100 µM

# context switch: different compound, same TGI
## Input Requested read-out: TGI. Entry: "NC(=O)c1ccc(Oc2nccc(-c3c(-c4ccc(F)cc4)ncn3C3CCNCC3)n2)cc1"
## Output > 25 µM

====

# Tested on: OVCAR-4 ovarian
# Assay Protocol: NCI tumour cell line growth inhibition, 48 h
Measured Endpoint: TGI (µM)
Response body: numeric value in µM, unit text excluded.

Example cases with answers are listed next.
> print(dat)
                                   compound  unit.abbrev  value.observed
1      CCOC(=O)Nc1ccc(S(=O)(=O)Nn2cnnc2)cc1           µM            73.4
2  O=c1c2nc(-c3ccccc3)oc2n(-c2ccccc2)c(=O)n1-c1ccccc1           µM            36.6

# context switch: different compound, same TGI
## Input Requested read-out: TGI. Entry: C=C1C(C)C2C(Cc3ccccc3)NC(=O)C23OC(=O)/C=C\CC(=O)CCC(C)C/C=C/C3C1O (centres undefined)
## Output 7.39

====

# Test system: UO-31 renal
# Assay Protocol: NCI tumour cell line growth inhibition, 48 h; in the data active = GI50 below about 0.43 µM; inactive = the rest
Respond with a class label; see active, inactive

> print(dat)
                                   compound  class.assignment
1  Cc1ccc(-c2nc(/C=N/Nc3cc(C)nc4ccc(Cl)cc34)c(C)o2)cc1          inactive
2  [N-]=[N+]=NCCCn1c2c(c3ccc([N+](=O)[O-])cc3c1=O)C(=O)c1cc(Br)ccc1-2          inactive
3  Cc1c(C#N)cccc1[C@@H](C)Nc1nnc(C)c2cnc(N3CCOCC3)cc12          inactive
4             O=C(/C=C/C=C/c1ccccc1)c1ccco1          inactive
5  CSc1nc2nc3c(nc2c(=O)n1C)C(=O)c1ccccc1C3=O            active
6  CNCCCNc1nc2ccccc2c2c(=O)c3cc(OC)ccc3sc12          inactive
7  C=C1C(O)C2CC(C)(CO)C(=O)C2=C(CC(C)C)C12CC2 (stereo not given)          inactive
8  COc1ccc(/C=C/c2c(C(=O)/C=C/c3ccc(C(F)(F)F)cc3)c(C)nc3ccccc23)cc1          inactive

## Input What call does the record list for "NC(=O)c1ccc(Oc2nccc(-c3c(-c4ccc(F)cc4)ncn3C3CCNCC3)n2)cc1" ?
## Output inactive

## Input What call does the record list for O=C(NNc1ccc(Cl)cc1)C1CCC(CNS(=O)(=O)c2ccccc2Cl)CC1 (stereo not given) ?
## Output inactive
